Data credit: paper PMC6908506

Biological target: FMDV O/Mya/98 146S antigen (Foot-and-mouth disease virus serotype …, UniProt G8JKC2, strain)
Assay: cell-based or functional assay
MEASUREMENT NAME: virus neutralizing test on BHK-21 cells, IC50 (µg/mL)

BINDER: F103 (antibody) VH: QVQLRESGPSLVKPSQTLSLTCTASGFSLSDKAVGWVRQAPGKALEWLGSIDTGGNSGYNPGLKSRLSITKDNSKSQASLSVSSVITGDSATYYCAIVHQETVRKTSGSDAYTCPDGCVLSPACSRERRCLCGTWPRDYCVDHIQSSTYNFYVEAWGQGLLVTVSS VL: QAVLTQPSSVSESLGQRVSITCSGISSSVGNGYVSWYQLIPGSAPRTLIYGDTSRASGVPDRFSGSRSGNTATLTISSLQAEDEADYFCASADGSSSNAIFGSGTTLTVL
UNITS SYMBOL: µg/mL
REPORTED VALUE: 6.22
